# Tested on: Staphylococcus aureus 606 E-25
# procedure summary: antibacterial activity, agar dilution method
# Assay type: cell-based
# condition: 606E25; Staphylococcus aureus 606 E-25; agar dilution method; read-out: Antibacterial Activity MIC
Reported values of MIC for individual entries
recorded endpoint: MIC (µg/mL)

{"compound": "Cc1c(O)c(=O)cc(CO/N=C(\\C(=O)NC2C(=O)N3C(C(=O)O)=C(CSc4nnnn4C)CSC23)c2csc(N)n2)n1O (stereo not shown) [Example 4]", "unit descriptor": "µg/mL", "observed value": 25}
{"compound": "Cc1c(O)c(=O)cc(CO/N=C(\\C(=O)NC2C(=O)N3C(C(=O)O)=C(CSc4cnns4)CSC23)c2csc(N)n2)n1O (stereo not shown) [Example 2]", "unit descriptor": "µg/mL", "observed value": 12.5}
{"compound": "CO/N=C(\\C(=O)N[C@@H]1C(=O)N2C(C(=O)O)=C(COC(C)=O)CS[C@H]12)c1csc(N)n1 [CTX, reference compound]", "unit descriptor": "µg/mL", "observed value": 1.56}
{"compound": "Cc1cc(=O)c(O)c(CO/N=C(\\C(=O)NC2C(=O)N3C(C(=O)O)=C(CSc4cnns4)CSC23)c2csc(N)n2)n1O (stereo not shown) [Example 6]", "unit descriptor": "µg/mL", "observed value": 1.56}
